# tgt: human VPS34 (Homo sapiens (Human), UniProt Q8NEB9)
# Sequence (Q8NEB9 whole entry): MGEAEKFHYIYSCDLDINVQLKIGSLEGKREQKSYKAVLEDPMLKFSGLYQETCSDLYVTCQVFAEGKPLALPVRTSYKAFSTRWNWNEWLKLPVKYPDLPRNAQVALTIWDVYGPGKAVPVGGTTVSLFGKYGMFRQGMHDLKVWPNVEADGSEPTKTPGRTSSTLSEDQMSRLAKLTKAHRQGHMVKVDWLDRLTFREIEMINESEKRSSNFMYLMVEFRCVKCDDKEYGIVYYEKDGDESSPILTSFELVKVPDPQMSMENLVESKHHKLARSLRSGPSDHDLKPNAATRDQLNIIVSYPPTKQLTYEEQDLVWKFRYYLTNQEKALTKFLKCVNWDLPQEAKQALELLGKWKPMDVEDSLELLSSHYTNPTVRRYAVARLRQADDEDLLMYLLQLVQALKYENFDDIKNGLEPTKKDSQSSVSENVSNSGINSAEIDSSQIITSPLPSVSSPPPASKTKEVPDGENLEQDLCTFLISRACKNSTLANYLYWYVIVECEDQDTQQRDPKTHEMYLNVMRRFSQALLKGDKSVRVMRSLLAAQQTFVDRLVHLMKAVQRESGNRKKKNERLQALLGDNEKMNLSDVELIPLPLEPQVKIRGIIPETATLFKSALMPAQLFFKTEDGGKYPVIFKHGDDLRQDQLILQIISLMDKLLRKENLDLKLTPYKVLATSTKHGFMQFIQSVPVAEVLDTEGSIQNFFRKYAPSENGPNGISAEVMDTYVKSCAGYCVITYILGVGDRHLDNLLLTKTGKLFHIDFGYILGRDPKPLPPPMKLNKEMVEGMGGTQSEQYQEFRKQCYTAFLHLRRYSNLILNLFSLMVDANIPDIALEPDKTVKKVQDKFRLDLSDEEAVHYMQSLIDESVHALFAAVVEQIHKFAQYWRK
# protocol.notes: Human VPS34 enzyme assay (Adapta TR-FRET)
# Type: biochemical
# measurement.context: 1 h; inhibition of VPS34 at a 1.11 μM concentration; read-out: Percent Inhibition
measured.endpoint: inhibition at 1.11 µM

>>> df
                                   molecule  result
0  Cc1nccc(Nc2cc(-c3cnc(C)c4[nH]ccc34)ccn2)n1 [Compound I-51]     91%
1  CCOC(=O)Nc1cc(-c2cnc(C)c3c2ccn3S(=O)(=O)c2ccccc2)ccn1 [Compound I-47]   > 99%
2  CC(=O)Nc1cc(-c2cnc(N(C)C)c3c2ccn3S(=O)(=O)C2CC2)ccn1 [Compound I-18]   > 99%
3  CCS(=O)(=O)n1ccc2c(-c3ccnc(NC(C)=O)c3)cnc(C)c21 [Compound I-16]   > 99%
